System: SARS-CoV-2
test_details: Inhibitory activity of cytopathic effect (CPE) in HEK293T/ACE2-TMPRSS2 cells
Type: cell-based
settings: Severe acute respiratory syndrome coronavirus 2, HEK-293T, 72 h; HEK293T/ACE2-TMPRSS2 cells, cultured 3 days, CellTiter-Glo 2.0 luminescence; read-out: EC50 (50% SARS-CoV-2 infected cell death inhibitory concentration)
pEC50: −log10 of the molar value.
Record form. Attribute: pEC50. Fill in for each entry.

Past entries and their recorded results:
Cn1cnc(Cn2c(=O)c3c(=O)n(C)c(N4CCC(F)(F)C4)cc3n(Cc3cc(F)c(F)c(Cl)c3)c2=O)n1 6.00 to 7.00
COc1nc(N(C)C(C)C)cc2c1c(=O)n(-c1cnc3cc(F)ccn13)c(=O)n2-c1ccc(F)c(Cl)c1 > 7.00
Cn1cnc(Cn2c(=O)c3c(=O)n(C)c(N4C[C@@H]5CC[C@H]4C5)cc3n(Cc3cc(F)c(F)c(Cl)c3)c2=O)n1 6.00 to 7.00
[2H]C([2H])([2H])N1CCc2c(ccc(Cl)c2-c2cc(OC)c3c(=O)n(Cc4ncn(C)n4)c(=O)n(Cc4cc(F)c(F)c(F)c4)c3c2)C1=O > 7.00
[2H]C([2H])([2H])O[C@@H]1CCN(c2cc3c(c(OC)n2)c(=O)n(-c2cncc(F)c2)c(=O)n3-c2ccc(F)c(Cl)c2)C1 > 7.00

For every item below, please supply its pEC50.
1. COc1nc(N2CC[C@@H](C#N)C2)cc2c1c(=O)n(-c1cnc3cc(F)ccn13)c(=O)n2Cc1cc(F)c(F)c(F)c1
2. COc1nc(N2C[C@H]3C[C@@H]2CO3)cc2c1c(=O)n(-c1cnc3cc(F)ccn13)c(=O)n2-c1ccc(F)c(Cl)c1
3. COc1nc(N2CC[C@@H](F)C2)cc2c1c(=O)n(Cc1ncn(C)n1)c(=O)n2-c1ccc(C)c(Cl)c1
4. COc1nc(N2C[C@@H](F)[C@@H](F)C2)cc2c1c(=O)n(-c1cnc3cc(F)ccn13)c(=O)n2-c1ccc(F)c(F)c1
5. COc1nc(-c2cc(C#N)ccc2Cl)cc2c1c(=O)n(-c1cc(C)cnn1)c(=O)n2Cc1cc(F)c(F)c(F)c1

Reply |
1. > 7.00
2. > 7.00
3. > 7.00
4. > 7.00
5. > 7.00

For every item below, please supply its pEC50.
1. COC[C@@H]1CCN(c2cc3c(c(OC)n2)c(=O)n(-c2cncc(Cl)c2)c(=O)n3-c2ccc(F)c(Cl)c2)C1
2. COc1nc(N2CC[C@H](OC)C2)cc2c1c(=O)n(-c1cnc3cc(F)ccn13)c(=O)n2-c1ccc(F)c(Cl)c1
3. COc1nc(N2C[C@@H]3[C@H](C2)C3(F)F)cc2c1c(=O)n(-c1cnc3cc(F)ccn13)c(=O)n2-c1ccc(F)c(Cl)c1

Reply |
["> 7.00", "> 7.00", "> 7.00"]

====

Record form. Attribute: IC50. Fill in for each entry.
target_of_assay: SARS-CoV-2 3CL protease (Severe acute respiratory syndrome coronavirus 2, UniProt P0DTD1)
test_details: Inhibitory activity test against SARS-CoV-2 3CL proteases
Type: biochemical
settings: read-out: IC50 (50% SARS-CoV-2 3CL protease inhibitory concentration)

Past entries and their recorded results:
COc1nc(N2CCC(F)(F)C2)cc2c1c(=O)n(-c1cnc3ccccn13)c(=O)n2-c1ccc(F)c(Cl)c1 < 100 nM
COc1cc(-c2nc3c(cc2Cl)NC(=O)C3)cc2c1c(=O)n(Cc1ncn(C)n1)c(=O)n2Cc1cc(F)c(F)c(F)c1 10 nM
COc1cc(-c2cc3[nH]c(=O)[nH]c3cc2Cl)cc2c1c(=O)n(Cc1ncn(C)n1)c(=O)n2Cc1cc(F)c(F)c(F)c1 < 100 nM
COc1cc(-c2cc(C(=O)NCCOCCO)ccc2Cl)cc2c1c(=O)n(-c1cncc(C)c1)c(=O)n2Cc1ccc(F)c(C#N)c1 11 nM
COc1nc(N2CCC(F)(F)C2)cc2c1c(=O)n(-c1cncc(C)c1)c(=O)n2-c1ccc(F)c(Cl)c1 < 100 nM
COc1nc(N2CCOC[C@H]2C)cc2c1c(=O)n(-c1cnc3cc(F)ccn13)c(=O)n2-c1ccc(F)c(Cl)c1 < 100 nM
COc1nc(N2CCC(F)(F)C2)cc2c1c(=O)n(-c1cnc3cc(F)c(F)cn13)c(=O)n2-c1ccc(F)c(Cl)c1 < 100 nM
COc1nc2c(=O)n(Cc3ncn(C)n3)c(=O)n(Cc3cc(F)c(F)c(C#N)c3)c2cc1-c1cc(C#N)ccc1Cl < 100 nM

For every item below, please supply its IC50.
1. COc1nc2c(=O)n(Cc3ncn(C)n3)c(=O)n(Cc3cc(Cl)ccc3Cl)c2cc1-c1cc(C#N)ccc1Cl
2. COc1nc(N2CC[C@@H](O)C2)cc2c1c(=O)n(-c1cncc(OCF)c1)c(=O)n2-c1ccc(F)c(F)c1
3. COc1cc(-c2cc3c(cc2Cl)NC(=O)C3)cc2c1c(=O)n(-c1cncc(C)c1)c(=O)n2Cc1cc(Cl)c(F)cn1
4. CC(C)=Cc1cc2c(c(=O)n(Cc3ncn(C)n3)c(=O)n2Cc2cc(F)c(F)c(Cl)c2)c2nccnc12

Reply |
< 100 nM
< 100 nM
2 nM
37 nM

In plain terms, `COc1cc(-c2cc(C#N)ccc2Cl)cc2c1c(=O)n(Cc1ncn(C)n1)c(=O)n2[C@H](C)c1cc(F)c(F)c(F)c1` has a documented IC50 of < 100 nM
